# Tested on: lymphocytic leukemia P388
# assay.text: Lymphocytic Leukemia P388 Test
# Assay type: in vivo, BDF1 mice
# run.parameters: dose 1.5 mg/kg intraperitoneally on days 1, 5 and 9; BDF1 mice
The threshold is 20 days. Values of Median Survival beneath it are tagged class 1; values meeting or exceeding it are tagged class 0.

{"compound": "CC(C)C[C@H](NC(=O)[C@H](C)NC(=O)[C@H](C)N)C(=O)NCCNc1ccc(NCCNC(=O)[C@H](CC(C)C)NC(=O)[C@H](C)NC(=O)[C@H](C)N)c2c1C(=O)c1c(O)ccc(O)c1C2=O.O=C(O)C(F)(F)F.O=C(O)C(F)(F)F", "group": "class 0"}
{"compound": "CC(C)CC(N)C(=O)N(CCO)CCNc1ccc(NCCN(CCO)C(=O)C(N)CC(C)C)c2c1C(=O)c1c(O)ccc(O)c1C2=O.Cl.Cl (stereo not drawn)", "group": "class 1"}
{"compound": "CC(C)(C)OC(=O)N[C@@H](CO)C(=O)NCCNc1ccc(NCCNC(=O)[C@H](CO)NC(=O)OC(C)(C)C)c2c1C(=O)c1c(O)ccc(O)c1C2=O (relative stereo)", "group": "class 1"}

stdin: Below 20 days on Median Survival? Entry `Br.Br.CC(C)C[C@H](NC(=O)CNC(=O)CN)C(=O)NCCNc1ccc(NCCNC(=O)[C@H](CC(C)C)NC(=O)CNC(=O)CN)c2c1C(=O)c1c(O)ccc(O)c1C2=O`
stdout: class 0

stdin: Below 20 days on Median Survival? Entry `CC(C)C[C@H](NC(=O)[C@H](C)NC(=O)OC(C)(C)C)C(=O)NCCNc1ccc(NCCNC(=O)[C@H](CC(C)C)NC(=O)[C@H](C)NC(=O)OC(C)(C)C)c2c1C(=O)c1c(O)ccc(O)c1C2=O`
stdout: class 1

stdin: Below 20 days on Median Survival? Entry CC(C)C[C@@H](N)C(=O)N(CCO)CCNc1ccc(NCCN(CCO)C(=O)[C@H](N)CC(C)C)c2c1C(=O)c1c(O)ccc(O)c1C2=O.O=C(O)C(F)(F)F.O=C(O)C(F)(F)F.O=C(O)C(F)(F)F (relative stereo)
stdout: class 1

stdin: Below 20 days on Median Survival? Entry `Br.Br.C[C@H](N)C(=O)N[C@@H](C)C(=O)N[C@@H](CCCNC(=N)N)C(=O)NCCNc1ccc(NCCNC(=O)[C@H](CCCNC(=N)N)NC(=O)[C@H](C)NC(=O)[C@H](C)N)c2c1C(=O)c1c(O)ccc(O)c1C2=O.O=C(O)C(F)(F)F.O=C(O)C(F)(F)F`
stdout: class 0

stdin: Below 20 days on Median Survival? Entry `CC(C)C[C@H](NC(=O)OCc1ccccc1)C(=O)N[C@@H](C)C(=O)N[C@@H](CC(C)C)C(=O)NCCNc1ccc(NCCNC(=O)[C@H](CC(C)C)NC(=O)[C@H](C)NC(=O)[C@H](CC(C)C)NC(=O)OCc2ccccc2)c2c1C(=O)c1c(O)ccc(O)c1C2=O`
stdout: class 1

stdin: Below 20 days on Median Survival? Entry `O=C(CNC(=O)CNC(=O)OCc1ccccc1)NCCNc1ccc(NCCNC(=O)CNC(=O)CNC(=O)OCc2ccccc2)c2c1C(=O)c1c(O)ccc(O)c1C2=O`
stdout: class 1

* * *

T/C × 100 (%) by entry:
# System: lymphocytic leukemia P388
# assay.text: Lymphocytic Leukemia P388 Test
# Type: in vivo, BDF1 mice
# run.parameters: dose 0.75 mg/kg intraperitoneally on days 1, 5 and 9; ratio of survival time treated/control
Enter your answer as a number in %; do not include the unit.

{"compound": "C[C@H](NC(=O)[C@H](CO)NC(=O)[C@H](CC(=O)OC(C)(C)C)NC(=O)OCC1c2ccccc2-c2ccccc21)C(=O)NCCNc1ccc(NCCNC(=O)[C@H](C)NC(=O)[C@H](CO)NC(=O)[C@H](CC(=O)OC(C)(C)C)NC(=O)OCC2c3ccccc3-c3ccccc32)c2c1C(=O)c1c(O)ccc(O)c1C2=O [Example 77]", "T/C × 100 (%)": 167}

Value of measured T/C × 100 (%) for the entry CC(C)(C)OC(=O)N[C@@H](COCc1ccccc1)C(=O)NCCNc1ccc(NCCNC(=O)[C@H](COCc2ccccc2)NC(=O)OC(C)(C)C)c2c1C(=O)c1c(O)ccc(O)c1C2=O (relative stereo) [Example 41] : 120

Value of measured T/C × 100 (%) for the entry CC(C)C[C@H](NC(=O)[C@H](C)NC(=O)[C@H](CC(=O)OC(C)(C)C)NC(=O)OCC1c2ccccc2-c2ccccc21)C(=O)NCCNc1ccc(NCCNC(=O)[C@H](CC(C)C)NC(=O)[C@H](C)NC(=O)[C@H](CC(=O)OC(C)(C)C)NC(=O)OCC2c3ccccc3-c3ccccc32)c2c1C(=O)c1c(O)ccc(O)c1C2=O [Example 81] : 145

Value of measured T/C × 100 (%) for the entry CSCC[C@H](N)C(=O)NCCNc1ccc(NCCNC(=O)[C@@H](N)CCSC)c2c1C(=O)c1c(O)ccc(O)c1C2=O.Cl.Cl (relative stereo) [Example 22] : 170
